This collection of values is drawn from PubChem BioAssay (NCI).

Consider the following compounds; for each one, report its growth.
# System: OVCAR-4 ovarian
# Assay Method Text: NCI-60 one-dose screen, 48 h (100 = growth as untreated, 0 = no growth, -100 = all killed)
# Condition Details: 10 µM unless noted
This is part of a sample that, as a whole, favours compounds with a hit. Of some 83,000 tested, about 20% had one in any assay. The source made the active and inactive calls. The calls were made as follows: active = growth percent below 10; inactive = the rest.

>  <Compound>
O=C1C2C3C=CC(O3)C2C(=O)N1Nc1ccccc1 (stereo unspecified)

>  <System Name>
OVCAR-4 ovarian

>  <Property>
growth

>  <Observed Result>
102% (inactive)

$$$$

Could you tell me growth for each of these compounds? They are listed below.
1. CCC(CCC(C)C1CCC2C3CC=C4CC(O)CCC4(C)C3CCC12C)C(C)C (stereo unspecified) (tested in a mixture with another compound)
2. COc1ccc(/C=C2\COc3ccc(O)c(O)c3C2=O)cc1OC
3. C=CCOc1ccc2c(c1)CC[C@@H]1[C@@H]2CC[C@@]2(C)[C@H]1CC[C@]2(C)O
4. C[n+]1ccc(C#N)c2ccccc21
5. Cn1cc(-c2csc(-c3c[nH]c4ncccc34)n2)c2cc(Br)cnc21

93.7% (inactive)
30.1% (inactive)
89.4% (inactive)
64.7% (inactive)
-34.6% (active)

====

# Test system: MCF7 breast
# Assay Method Text: NCI-60 one-dose screen, 48 h (100 = growth as untreated, 0 = no growth, -100 = all killed)
# Condition Details: 10 µM unless noted
The panel holds about 83,000 compounds, 20% with a hit somewhere; the sample as a whole holds those more often.
# note: exactly 10% is not below, so it is NOT MET; use MET for growth strictly under it

Example results:
>  <Molecule>
O=[P@@]1(c2ccccc2)O[C@H](COCc2ccccc2)[C@@H](OCc2ccccc2)[C@H](OCc2ccccc2)[C@H]1NCc1ccccc1

>  <Discrete Label>
MET

$$$$
>  <Molecule>
COC(=O)C[C@@H]1CC=CC(=O)/C1=C(O)/C=C/c1ccccc1

>  <Discrete Label>
MET

$$$$
>  <Molecule>
CCN1C(=O)c2ccc3c4c(ccc(c24)C1=O)C(=O)N(CCCNCc1ccccc1OC)C3=O

>  <Discrete Label>
MET

$$$$
>  <Molecule>
COc1cc2c(cc1OC)C1CCN3C(=O)CCC3N1CC2 (stereo not given)

>  <Discrete Label>
NOT MET

$$$$

# evaluate next
Is it true that growth reported for NNC(=O)C1CC2c3ccccc3C1c1ccccc12 (stereo not given) is less than 10%? NOT MET

====

For each entry below, report its growth value.
# System: M14 melanoma
# Assay Method Text: NCI-60 one-dose screen, 48 h (100 = growth as untreated, 0 = no growth, -100 = all killed)
# Condition Details: 10 µM unless noted
The panel holds about 83,000 compounds, 20% with a hit somewhere; the sample as a whole holds those more often.
Answers are plain numbers, in %.

>  <Molecule>
Cc1ccc(C(C)C)cc1NC(=O)Nc1ccc([N+](=O)[O-])cc1

>  <System Name>
M14 melanoma

>  <Observed Result>
22.3

$$$$
>  <Molecule>
NS(=O)(=O)c1ccc(NC2=C(Cl)C(=O)c3ccccc3C2=O)cc1

>  <System Name>
M14 melanoma

>  <Observed Result>
99.9

$$$$
>  <Molecule>
CC[C@H](C)C(=O)O[C@H]1C[C@@H](C)C=C2C=C[C@H](C)[C@H](CC[C@@H]3C[C@@H](O)CC(=O)O3)[C@H]21

>  <System Name>
M14 melanoma

>  <Observed Result>
59.2

$$$$
>  <Molecule>
COc1cc2c(-c3nc4cc(Cl)c(F)cc4s3)cc(=O)oc2c(C)c1OC

>  <System Name>
M14 melanoma

>  <Observed Result>
-35.2

$$$$
>  <Molecule>
COc1ccc2c(c1)[nH]c(=O)c1c3cc(OC)c(OC)cc3cn21

>  <System Name>
M14 melanoma

>  <Observed Result>
23.6

$$$$

I would be grateful if you could provide growth for each of the following entries.
1. Cc1scc2c1N(C(=O)CN1CCN(C)CC1)c1ccccc1NC2=O
2. O=C(/C(=C/c1ccc([N+](=O)[O-])cc1)c1ccccc1)c1ccccc1
3. Nc1c2ccccc2nc2ccccc12 (tested in a mixture with another compound)

111
51.6
17.1

// for each molecule in input: emit growth
1. O=C1OCCCCCCCCCC#Cc2ccccc21
2. C[C@]12C[C@H](O)[C@H]3[C@@H](CCC4=CC(=O)CC[C@@]43C)[C@@H]1CC[C@@H]2C(=O)CO

109
107
